# experimentDescription: Odour perception threshold
# conditionInfo: in air
Below: a set of entries, each annotated with reported perception threshold.
Reply with just the number (in ng/L).

Worked cases, answers included:
CC/C=C\CC/C=C/C=O    0.06
CC(C)c1cccc(C(C)CC=O)c1 (stereo not shown)    0.07
CC/C=C\CC/C=C/C=N/OC    2.94

Kindly consider the entry below.
Summary for this compound, CO/N=C/CC(C)c1cccc(C(C)C)c1 (stereo not shown) : perception threshold is 22.4
